Measured Hemolysis at 100 μg/ml of individual entries
System: human red blood cells (hRBC)
Assay: Hemolysis of human red blood cells
Type: cell-based
Conditions: red cells of human, 1 h, 100
Where a SMILES comes first, the peptide text is derived from it. [ ]: non-standard residue; d: D form. Pro(3S-OH) = O=C(O)[C@H]1NCC[C@@H]1O; Dap(CONH2) = NC(=O)NC[C@H](N)C(=O)O; Cha = N[C@@H](CC1CCCCC1)C(=O)O; Tle = CC(C)(C)[C@H](N)C(=O)O; dDab = NCC[C@@H](N)C(=O)O; Orn = NCCC[C@H](N)C(=O)O; Dab = NCC[C@H](N)C(=O)O

# molecule, Hemolysis at 100 μg/ml (%)
records = [
    ("CC(C)C[C@@H]1NC(=O)[C@@H]2[C@@H](O)CCN2C(=O)[C@H]2CCCN2C(=O)[C@H](CO)NC(=O)[C@H](CNC(N)=O)NC(=O)[C@H](C(C)(C)C)NC(=O)[C@H](CCN)NC(=O)[C@H](Cc2c[nH]c3ccccc23)NC(=O)[C@H](CCN)NC(=O)[C@@H](CCN)NC(=O)[C@H](CCCN)NC(=O)[C@H](CCN)NC(=O)[C@H](CC2CCCCC2)NC(=O)[C@H](C)NC1=O [compound 60] (cyclo(LA[Cha][Dab][Orn][dDab][Dab]W[Dab][Tle][Dap(CONH2)]S[dP][Pro(3S-OH)]))", 1),
    ("CC(C)C[C@@H]1NC(=O)[C@@H]2CCCN2C(=O)[C@H]2CCCN2C(=O)[C@H](CO)NC(=O)[C@H](C)NC(=O)[C@H](C(C)(C)C)NC(=O)[C@H](CCN)NC(=O)[C@H](Cc2c[nH]c3ccccc23)NC(=O)[C@H](CCN)NC(=O)[C@@H](CCN)NC(=O)[C@H](CCN)NC(=O)[C@H](CCN)NC(=O)[C@H](Cc2ccc(O)cc2)NC(=O)[C@H](CO)NC1=O [compound 96] (cyclo(LSY[Dab][Dab][dDab][Dab]W[Dab][Tle]AS[dP]P))", 1),
]

Source listed as patent US9938322B2.
